- measurement.protocol: Standard Cytotoxicity Assay for other cancer cell types (TC50, CellTiter-Glo)
- Format: cell-based
- condition.parameters: human, MALME-3 cells (normal skin), MALME-3 cells (skin (normal)); 7 day; read-out: Cmpd A 7 day TC50
parameter.measured: CC50 at 7 day (nM)
Provide only the numeric value, understood in nM.

**Query** Return reported CC50 at 7 day; argument: `O=C(NCc1cccnc1)Nc1ccc(COc2ccccc2-c2ccccc2)cc1`
**Result** 0.9

====

- measurement.protocol: Standard Cytotoxicity Assay for other cancer cell types (TC50, CellTiter-Glo)
- Type: cell-based
- condition.parameters: SAEC (primary lung cells), SAEC (primary lung); 3 day; value printed with (?); read-out: Cmpd A 3 day TC50
parameter.measured: CC50 at 3 day (µM)
Provide only the numeric value, understood in µM.

**Query** Return reported CC50 at 3 day; argument: O=C(NCc1cccnc1)Nc1ccc(COc2ccccc2-c2ccccc2)cc1 [Exemplary Compound A]
**Result** 15
